Target: P2X7 (IL-1β release from THP-1 cells) (Homo sapiens (Human))
Sequence (Q99572 whole entry): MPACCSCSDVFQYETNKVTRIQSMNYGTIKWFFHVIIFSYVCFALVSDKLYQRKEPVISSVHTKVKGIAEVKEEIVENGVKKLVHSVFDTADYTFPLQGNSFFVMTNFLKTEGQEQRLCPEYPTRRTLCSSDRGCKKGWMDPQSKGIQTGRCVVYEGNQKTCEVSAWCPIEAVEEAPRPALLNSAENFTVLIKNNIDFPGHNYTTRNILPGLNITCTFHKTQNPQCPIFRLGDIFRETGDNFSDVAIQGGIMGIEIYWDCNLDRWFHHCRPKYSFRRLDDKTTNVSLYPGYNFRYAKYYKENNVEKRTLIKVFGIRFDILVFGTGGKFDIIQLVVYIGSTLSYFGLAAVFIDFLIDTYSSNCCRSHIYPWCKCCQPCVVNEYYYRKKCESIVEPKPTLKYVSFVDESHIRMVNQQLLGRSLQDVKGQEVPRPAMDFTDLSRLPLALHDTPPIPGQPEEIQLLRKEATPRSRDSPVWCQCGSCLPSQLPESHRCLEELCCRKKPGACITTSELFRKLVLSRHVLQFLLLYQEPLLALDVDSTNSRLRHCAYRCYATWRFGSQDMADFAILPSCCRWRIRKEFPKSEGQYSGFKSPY
Assay: IL-1β release assay
Type: cell-based
// reported IC50 per item

Which IC50 is reported for this molecule? `COCCn1cc(C(=O)NCC2(c3ccccc3)CCCCC2)c2c(Cl)cccc21` 101 to 500 nM

----------
Biological target: human P2X7 receptor (Homo sapiens (Human))
Sequence (Q99572 whole entry): as above
Assay: Pore permeation assay (YO PRO dye uptake)
Type: cell-based
property name: IC50

molecule | measurement
O=C(NCC1(O)CCC(F)(F)CC1)c1cn(CC(F)(F)F)c2cccc(Cl)c12 | 0.01 to 0.1 µM

Query (molecule): `O=C(NCC1CCC(F)(F)CC1)c1cn(CC(F)(F)F)c2cccc(Cl)c12` ; field requested: IC50 0.01 to 0.1 µM

I'd like to know its IC50. The molecule in question is `O=C(NCC1CCC(F)(F)CC1)c1cn(C2CN(C3CC3)C2)c2cccc(Cl)c12` 0.101 to 0.5 µM

Record request: IC50 value, item `COCCn1cc(C(=O)NC[C@]2(O)CCC[C@H](C)C2)c2c(Cl)cccc21` 0.01 to 0.1 µM

Find the recorded IC50 belonging to `O=C(NCC1CCC(F)(F)CC1)c1cn(CC2CCOCC2)c2cccc(Cl)c12` and report it. 0.01 to 0.1 µM

Look up IC50: `O=C1CC[C@H](Cn2cc(C(=O)NCC3CCC(F)(F)CC3)c3c(Cl)cccc32)N1` 0.01 to 0.1 µM

Please look up its IC50: CCC1CCCC(O)(CNC(=O)c2cn(CC3CCCO3)c3cccc(Cl)c23)C1 (centres unmarked) 0.101 to 0.5 µM

Could you share which IC50 value was measured for COCCn1cc(C(=O)NCC(C)c2ccccc2Cl)c2c(Cl)cccc21 (centres unmarked) ? 0.101 to 0.5 µM

Recorded IC50 of `COCCn1cc(C(=O)NCC2(O)CCC(F)(F)CC2)c2c(Cl)cccc21` , please. 0.01 to 0.1 µM

Any idea what its IC50 is? The molecule is CN1CCOC(Cn2cc(C(=O)NCC3CCC(F)(F)CC3)c3c(Cl)cccc32)C1 (centres unmarked) 0.01 to 0.1 µM

What does the data say about its IC50? Entry: `CN1CC(F)(F)C[C@H]1Cn1cc(C(=O)NCC2CCC(F)(F)CC2)c2c(Cl)cccc21` 0.101 to 0.5 µM

// returns reported IC50 for input `CC(C)N1CC[C@H]1Cn1cc(C(=O)NCC2CCC(F)(F)CC2)c2c(Cl)cccc21` 0.101 to 0.5 µM

Using the record for `O=C(NCC1CCC(F)(F)CC1)c1cn(CC2CC(F)(F)C2)c2cccc(Cl)c12` , report its IC50. 0.01 to 0.1 µM
